Data origin: the nanobody polyreactivity screen of Harvey et al. (2022)

test-description: yeast display, Sf9 membrane polyspecificity reagent, FACS + sequencing; frameworks hold sequencing errors

# seq, polyreactivity (PSR sort gate)
data = [
    ("QVQLVESGGGLVQAGGSLRLSCAASGSTFWAYAMGWYRQAPGKERELVATITWSVGGTYYADSVKGRFTISRDNAKNTVYLQMNSLKPEDTAVYYCATDAYVKGVYEISEDRVDYWGQGTQVTVSS", "low polyreactivity"),
    ("QVQLVESGGGLVQAGGSLRLSCAASGSIFYYYAMGWYRQAPGKERELVATITSGGTTYYADSVKGRFTISRDNAKNTVYLQMISLKPEDTAVYYCAKRVKYHLYWGQGTQVTVSS", "low polyreactivity"),
    ("QVQLVESGGGLVQAGGRLRLSCAASGSIFFAYAMGWYRQAPGKERELVAAITSGVSTNYADSVKGRFTISRDNAKNTVYLQMNSLKPEDTAVYYCNADFDYGFDAGVAVQVVIHDYWGQGTQVTVSS", "low polyreactivity"),
    ("QVQLVESGGGLVQAGGSLRLSCAASGRTFDPYAMVWYRQAPGKERELVAAISSGGSTNYADSVKGRFTISRDNAMYTVYLQMNSLKPEDTAVYFCATDSGDGEGDYWGQGTQVTVSS", "low polyreactivity"),
    ("QVHLVESGGGLVQAGGSLRLSCAASGRTFVRYAMGWYRQAPGKERELVARITARGTSTYYADSVKGRFTISRDNAKNTVYLQMNRLKPEDTAVYYCNKVRTFRDKSRYDYWGQGTQVTVSS", "low polyreactivity"),
    ("QVQLVESGGGLVQARGSLRLSCAASGYIFFGNAMGWYRQAPGKERELVAAIRWRGTSTYYADSVKGRFTISRDNAKNTVYLQMKSLKPEDTAVYYCAADVVSSNFYGTFLYDYDYWGQGTQVTVSS", "low polyreactivity"),
    ("QVQLVESGGGLVQAGGSLRLSCAASGRILPGYAMGWYRQAPGKERELVAAIRGNGDSTYYADSVKGRFTISRDNAKNTVYLQMNSLKPEDTAVYFCAARRVSTIARDSYRGRKYGYWGQGTQVTVSS", "low polyreactivity"),
    ("QVQLVESGGGLVQAGGSLRLSCAASGRIFRGYAMGWYRQAPGKERELVAAISRGGNTDYADSVKGRFTISRDNAKNTVYLQMNSLKPEDTAVYYCAVGYVSYRKFYLYNSWGQGTQVTVSS", "high polyreactivity"),
    ("QVQLVESGGGLVQAGGSLRLICAASGLTFHPYAMGWYRPAPGKERELVAAISSRGTSTYYADSVKGRFTISRDNAQNTVYLQMNCLKPEDTAVYYFAARHGPRAEAMYYWGQGTQVTVSS", "high polyreactivity"),
    ("QVQLVESGGGLVQAGGSLRLSCAASGRTFTSNAMGWYRQAPGKERELVAAISNRGTRTYYADSVKGRFTISRDNAKNTVYLQMNSLKPEDTAVYYCAARVSTVFKRYYYWGQGTQVTVSS", "high polyreactivity"),
    ("QVQLVESGGGLVQAGGSLRLSCAASGRTFGGNAIGWYRQAPGKERELVAAISSGARTNYADSVKGRFTISRDNAKNTVYLQMNSLKPEDNAVYYCAAGYPYSYRDYYYWVQGTQVTVSS", "high polyreactivity"),
]

====

test-description: yeast display, Sf9 membrane polyspecificity reagent, FACS + sequencing; frameworks hold sequencing errors

# seq, polyreactivity (PSR sort gate)
data = [
    ("QVQLVESGGGLVQAGGSLSLSCAASGSIFAAYTMGWYRQAPGQDRELVAAITSGGTYADSVKGRFTISRDNAKYSVYLQKNSLQPEVTAVYYCYAGNNVVVDYDYWGQGTQVTVSS", "low polyreactivity"),
    ("QVQLVESGGGLVQAGGSLRLSCAASGRIFVGYAMGWYRQAPGKERELVAAITKSGGRTYYADSVKGRFTISRDNAKNTVYLQMNSLKPEDTAVYFCAKYLGRQHEKDLGGMNYWGQGTQLTVSS", "high polyreactivity"),
    ("QVQLVESGGGLVQAGGSLRLSCAASGRTFTKYAMGWYIQAPGKERELVASISTRGGSTYYADSVKGRFTISRDNAKNTVYLQMNSLKPEDTAVYYCNKGFRHRAPSSTPYDYWGQGTQVTVSS", "high polyreactivity"),
    ("QVQLVESCGGLVQAGGSLRLICAASGSIFFRNAKGWYRQAPGKERELVAAIRYTGTSTYYADSVKGRFTISRDNAKNTVYVQMNSLKPEDTAVYYCAKPWGSVRRREMDYWGQGTQVTVSS", "low polyreactivity"),
    ("QVQLVESGGGLVQAGGSLRLSCAASGSTFDRYAMGWYRQAPGKERELVAAISWSAGRTYYADTVKARFTISRDYAKNTVYLQMNSLKPEDTAVYYCAADQIVSGTYDYYWGQGTQVTVSS", "low polyreactivity"),
    ("QVQLVESGGGLVQAGGSLRLSCAASGITFYRYVMGWYRQAPGKERELVAAITTGDSTYYADSVKGRFTISRDNAKNTVYLLMNSLKPEDTAVYYCAAVYYSALANYDYWGQGTQVTVSS", "low polyreactivity"),
    ("QRQLVESGGGLVQAGGSLRLSCAASGFIFDSNAMGRYRQEPGKERELVAAFAARGGSTYYADSVKGRFTISRDYAKHTLYLQMNSLKPEETAVYNCNAVYIVGGYWGQGTQVTVSS", "high polyreactivity"),
    ("QVQLVESGGGLVQAGGSLRLSCAASGSTFVSNAMGWYRPAPGKERELVASISQSGGGTDYADSVKGRFTISRDNAKNTVYLQMNSLKPEDTAVYYCAADRVPVQAPYDYWGQGTQVTVSS", "high polyreactivity"),
    ("QVQLVESGGGLVQAGGSLRLSCAASGSILYYYTMGWYRQAPGQDRELVAAITSSGGSTYYADSVKGRFTISRDNATKTVYLQMNSLKPEDTAVDYCNVDSGRSYRVARYDYWGQGTQVTVSS", "low polyreactivity"),
    ("QVQLVESCGGLVQAGGSHRLSCAASGSTFAYNDMGWYRQAPGKERELVADIRSGGNTNYADSVKGRFTISRDNAKNTVYLQMNSLKPEDTAVYYRATDGYRIDVYHPDYRYDYWGQGTQVTVSS", "low polyreactivity"),
    ("QVQLVESGGGLVQAGGSLRLSCAASGFTFGYYAMGWYRQAPGKERELVAAINWSGVNTNYADSVKGRFTISRDNEKNTVYLQMNSLKPEDTAVYYCAADAGYDGYGYWGQGTQVTVSS", "low polyreactivity"),
]

====

test-description: yeast display, Sf9 membrane polyspecificity reagent, FACS + sequencing; frameworks hold sequencing errors
measured-parameter: polyreactivity (PSR sort gate)

# seq, measured-parameter, observed
measured = [
    ("QVQLVESGGGLVQAGGSLRLSCAASGRTFGYNAMGWYRQAPGKERELVAAIRTIGDSTYYADSVKGRFTISRDNAKNSVYLQMNSLKPEDTAVYYCAARKLRSRYDYWGQGTQVTVSS", "polyreactivity (PSR sort gate)", "high polyreactivity"),
    ("QVQLVESGGGLVQAGGSLRLICAASGRIFLRNDMGWYRQAPGKERELVAGISSDGSTYYADSVNGRFTISRDNAKNTVYLQMNSLKPEDTAVYYCAAERWGNPTDYQFWRPYDYWGQGTQVTVSS", "polyreactivity (PSR sort gate)", "low polyreactivity"),
    ("QVQLVDSGGGLVQAGGSLRLRCAASGITFLGNDMGWYRQAPGKERELVAAISSGSTNYADSVKGRFTISRDNANKTVDLQMNSLKPADPAVYYCAADIRGGLSNYSPKDYDYWGQGTQVTVSS", "polyreactivity (PSR sort gate)", "low polyreactivity"),
    ("QVQLVESGGGLVQAGGSLRLSCAASGSTIDWYGMGWYRQAPGKERELVAAINFSDGSTYYADSVKGRFTISRDNAKNTVYLQMNSLKPEDTAVYYCAAFTPSYGGRDYWGQGTQVTVSS", "polyreactivity (PSR sort gate)", "low polyreactivity"),
    ("QVQLVESGGGLVQAGGSLRLSCAASGSIFIWNALGCYRQAPGKERELVAAIRSSGGTTYYADSVKGRFTISRDNAKYTVYVQMNSLKPEDTAVYYCARRGYSSSYRYPRYYYWGQGTQVTVSS", "polyreactivity (PSR sort gate)", "high polyreactivity"),
    ("QVQLVESGGGLVQAGGILRLSCAASGSTLGFNAMGWYRLAPGKEREFDAGISASGSSTYYADSVKGRFTISRDNAKNTVYLQMNSLKPEDTAVYYCYAPRGSRRSYRRTEFYYWGQGTQVTVSS", "polyreactivity (PSR sort gate)", "high polyreactivity"),
    ("QVQLVESGGGLVQAGGSLRLSCAASGRTFRYYAMGWYRQAPGKERELVASISSTGGNTYYADSVKGRFTISRDNAKNTVYLQMNSLKPEDTAVYYCAAGAWTRGQYYYWGQGTQVTVSS", "polyreactivity (PSR sort gate)", "high polyreactivity"),
    ("QVQLVESGGGLVQAGGSLRLSCAASGITFVRYAMGWYRQAPGKERELVATITRRGGSTYYADSVKGRFTISRDNAKNTVYLQMNSLKPEDTAVYYCAADAYIWLYTDFPAYDYWGQGTHVTVSS", "polyreactivity (PSR sort gate)", "high polyreactivity"),
    ("QVQLEESGGGIVQAGGSLRLSCAASGSIFGGYAMGWYRQAPGKEREFFAAISWTSGRTTYADSVKGRFTISRDYAKNTVYLQMNSLKPEDTAVYNCAKRYGIWYPSYADRGSDYRYGYWGQGTQVTVSS", "polyreactivity (PSR sort gate)", "high polyreactivity"),
    ("QVQLVESGGGLVQAGGTLRLICAASGSTFGPYDMGWYRQAPGKERELVADITSGGSTYYADSVKGRFTISRDNAKNTVYLQMISLKPEDTAVYYCAADRVWPYYQYDYWGQGTQVTVSS", "polyreactivity (PSR sort gate)", "low polyreactivity"),
    ("QVQHVESGGGLVQAGGRLRLSCAASGSTFQLYAMGWYRQAPGKERELVASISWSGGSTYYADSVTGRFTISRDNAKNTVYLQMNSLKPEDTAVYYCNADFWWRYRPGAVFRSYGYWGQGTQVTVSS", "polyreactivity (PSR sort gate)", "low polyreactivity"),
]
